Target: Melanocortin receptor 5 (Homo sapiens)
Sequence (P33032 whole entry): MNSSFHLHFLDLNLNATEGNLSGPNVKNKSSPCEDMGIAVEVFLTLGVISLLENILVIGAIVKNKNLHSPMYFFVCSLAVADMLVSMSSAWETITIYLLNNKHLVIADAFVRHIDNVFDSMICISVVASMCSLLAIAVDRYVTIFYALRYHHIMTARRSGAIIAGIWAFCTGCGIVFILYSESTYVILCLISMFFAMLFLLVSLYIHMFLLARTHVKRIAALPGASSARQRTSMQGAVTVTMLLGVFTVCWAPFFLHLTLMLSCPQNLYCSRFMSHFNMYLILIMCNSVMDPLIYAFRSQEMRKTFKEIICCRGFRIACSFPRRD
Settings: 10 uM
// values below are reported Max
The reply should be a number in %, with the unit left off.

Recorded Max, per entry:
>>> measured("CN1C[C@H]2CC[C@@H]1[C@@H](C(=O)N[C@H](Cc1ccc(F)cc1)C(=O)N1CCC(C(=O)NC(C)(C)C)(C3CCCCC3)CC1)C2")
14
>>> measured("CC(C)(C)NC(=O)C1(C2CCCCC2)CCN(C(=O)[C@@H](Cc2ccc(F)cc2)NC(=O)[C@H]2C[C@H]3CC[C@@H]2NC3)CC1")
26
>>> measured("CN1C[C@@H]2CC[C@H]1[C@@H](C(=O)N[C@H](Cc1ccc(F)cc1)C(=O)N1CCC(C(=O)NC(C)(C)C)(C3CCCCC3)CC1)C2")
5
>>> measured("CN1C[C@H]2CC[C@@H]1[C@H](C(=O)N[C@H](Cc1ccc(F)cc1)C(=O)N1CCC(C(=O)NC(C)(C)C)(C3CCCCC3)CC1)C2")
33
>>> measured("CC(C)(C)NC(=O)C1(C2CCCCC2)CCN(C(=O)[C@@H](Cc2ccc(F)cc2)NC(=O)C2CC3CCC2NC3)CC1 (single isomer, unassigned)")
11

Please turn your attention to the following entry.
What does the data say about its Max? Entry: CC(C)(C)NC(=O)C1(C2CCCCC2)CCN(C(=O)[C@@H](Cc2ccc(F)cc2)NC(=O)[C@H]2C[C@@H]3CC[C@@H]2NC3)CC1 3
